Listed here: items and their measured DBIL.
Organism: Rattus norvegicus
Test Method Notes: Open TG-GATES - Regimen: Single
Format: toxicity, organism-based, Sprague-Dawley
Parameters: regimen Single, gender Male, age 6 weeks
Condition Description: in vivo, po, 0 mg/kg, 24 h, tissue Plasma, route gavage, dose level Control

- Molecule: "C[C@@H]1C[C@H]2[C@@H]3CCC4=CC(=O)C=C[C@]4(C)[C@@]3(F)[C@@H](O)C[C@]2(C)[C@@]1(O)C(=O)CO"
  Quantity Unit: "mg/dL"
  DBIL: 0.014
- Molecule: "NC(N)=Nc1nc(CSCCC(N)=NS(N)(=O)=O)cs1"
  Quantity Unit: "mg/dL"
  DBIL: 0.088
- Molecule: "CC(C)OC(=O)C(C)(C)Oc1ccc(C(=O)c2ccc(Cl)cc2)cc1 [FENOFIBRATE]"
  Quantity Unit: "mg/dL"
  DBIL: 0.012
- Molecule: "CC/C(=C(\\c1ccccc1)c1ccc(OCCN(C)C)cc1)c1ccccc1"
  Quantity Unit: "mg/dL"
  DBIL: 0.012
- Molecule: "COc1cc2c(c(OC)c1OC)-c1ccc(OC)c(=O)cc1[C@@H](NC(C)=O)CC2"
  Quantity Unit: "mg/dL"
  DBIL: 0.022
- Molecule: "COc1ccc2[nH]c([S+]([O-])Cc3ncc(C)c(OC)c3C)nc2c1 (centres undefined)"
  Quantity Unit: "mg/dL"
  DBIL: 0.094
- Molecule: "CCCNC(=O)NS(=O)(=O)c1ccc(Cl)cc1 [CHLORPROPAMIDE]"
  Quantity Unit: "mg/dL"
  DBIL: 0.012
- Molecule: "Cc1ccc(C)c(OCCCC(C)(C)C(=O)O)c1"
  Quantity Unit: "mg/dL"
  DBIL: 0.024
- Molecule: "CCOc1ccc(NC(=O)CC(C)O)cc1 (centres undefined)"
  Quantity Unit: "mg/dL"
  DBIL: 0.022

----------
Species on record: Rattus norvegicus
Test Method Notes: Open TG-GATES - Regimen: Daily Repeat
Format: toxicity, organism-based, Sprague-Dawley
Design: regimen Daily Repeat, gender Male, age 6 weeks
Condition Description: in vivo, po, 1000 mg/kg, 72 h, tissue Plasma, route gavage, dose level High, time 3 day
Listed here: items and their measured ALP.

- Molecule: "NC(N)=Nc1nc(CSCCC(N)=NS(N)(=O)=O)cs1"
  Quantity Unit: "IU/L"
  ALP: 917.2
- Molecule: "COC1=CC(=O)C[C@@H](C)[C@]12Oc1c(Cl)c(OC)cc(OC)c1C2=O"
  Quantity Unit: "IU/L"
  ALP: 1064.4
- Molecule: "CCOc1ccc(NC(=O)CC(C)O)cc1 (stereo not given)"
  Quantity Unit: "IU/L"
  ALP: 1511.6
- Molecule: "CCOC(=O)CCC(=O)O[C@H]1[C@H](O[C@@H]2[C@@H](C)[C@H](O[C@H]3C[C@@](C)(OC)[C@@H](O)[C@H](C)O3)[C@@H](C)C(=O)O[C@H](CC)[C@@](C)(O)[C@H](O)[C@@H](C)C(=O)[C@H](C)C[C@@]2(C)O)O[C@H](C)C[C@@H]1N(C)C [ERYTHROMYCIN ETHYLSUCCINATE]"
  Quantity Unit: "IU/L"
  ALP: 1860.4
- Molecule: "COc1ccc2[nH]c([S+]([O-])Cc3ncc(C)c(OC)c3C)nc2c1 (stereo not given)"
  Quantity Unit: "IU/L"
  ALP: 629

----------
Listed here: items and their measured IP.
Species: Rattus norvegicus
Test Method Notes: Open TG-GATES - Regimen: Single
Assay type: toxicity, organism-based, Sprague-Dawley
Set-up: regimen Single, gender Male, age 6 weeks
Condition Description: in vivo, po, 30 mg/kg, 24 h, tissue Plasma, route gavage, dose level Middle

- Smiles Entry: "CN(C)CCCN1c2ccccc2CCc2ccc(Cl)cc21"
  IP / mg/dL: 8
- Smiles Entry: "CN(C)CCCN1c2ccccc2CCc2ccccc21"
  IP / mg/dL: 7.8
- Smiles Entry: "CN(C)CCN(Cc1cccs1)c1ccccn1"
  IP / mg/dL: 7.3
- Smiles Entry: "CC1=C(/C=C/C(C)=C/C=C/C(C)=C/CO)C(C)(C)CCC1"
  IP / mg/dL: 7.2

----------
Species on record: Rattus norvegicus
Test Method Notes: Open TG-GATES - Regimen: Single
Type: toxicity, organism-based, Sprague-Dawley
Set-up: regimen Single, gender Male, age 6 weeks
Condition Description: in vivo, po, 100 mg/kg, 9 h, tissue Plasma, route gavage, dose level High

- Compound: "CN(C)CCCN1c2ccccc2CCc2ccc(Cl)cc21 [CLOMIPRAMINE]"
  TP [g/dL]: 5.2
- Compound: "CN(C)CCN(Cc1cccs1)c1ccccn1"
  TP [g/dL]: 5.3
- Compound: "CN(C)CCCN1c2ccccc2CCc2ccccc21 [IMIPRAMINE]"
  TP [g/dL]: 5.4
- Compound: "CC1=C(/C=C/C(C)=C/C=C/C(C)=C/CO)C(C)(C)CCC1 [RETINOL]"
  TP [g/dL]: 5.3

----------
Listed here: items and their measured IP.
Species on record: Rattus norvegicus
Test Method Notes: Open TG-GATES - Regimen: Single
Assay type: toxicity, organism-based, Sprague-Dawley
Set-up: regimen Single, gender Male, age 6 weeks
Condition Description: in vivo, po, 0 mg/kg, 6 h, tissue Plasma, route gavage, dose level Control

- Smiles Entry: "NC(N)=Nc1nc(CSCCC(N)=NS(N)(=O)=O)cs1"
  IP: "9 mg/dL"
- Smiles Entry: "NNC(=O)c1ccncc1"
  IP: "9.8 mg/dL"
- Smiles Entry: "CC1=C(/C=C/C(C)=C/C=C/C(C)=C/CO)C(C)(C)CCC1"
  IP: "9.9 mg/dL"
- Smiles Entry: "CN(C)CCCN1c2ccccc2CCc2ccccc21"
  IP: "9.4 mg/dL"
- Smiles Entry: "COc1cc2c(c(OC)c1OC)-c1ccc(OC)c(=O)cc1[C@@H](NC(C)=O)CC2"
  IP: "10.1 mg/dL"

----------
Listed here: items and their measured TG.
Species on record: Rattus norvegicus
Test Method Notes: Open TG-GATES - Regimen: Single
Format: toxicity, organism-based, Sprague-Dawley
Design: regimen Single, gender Male, age 6 weeks
Condition Description: in vivo, po, 0 mg/kg, 24 h, tissue Plasma, route gavage, dose level Control

- Compound: "CC1=C(/C=C/C(C)=C/C=C/C(C)=C/CO)C(C)(C)CCC1 [RETINOL]"
  TG: "79.2 mg/dL"
- Compound: "CCOC(=O)CCC(=O)O[C@H]1[C@H](O[C@@H]2[C@@H](C)[C@H](O[C@H]3C[C@@](C)(OC)[C@@H](O)[C@H](C)O3)[C@@H](C)C(=O)O[C@H](CC)[C@@](C)(O)[C@H](O)[C@@H](C)C(=O)[C@H](C)C[C@@]2(C)O)O[C@H](C)C[C@@H]1N(C)C [ERYTHROMYCIN ETHYLSUCCINATE]"
  TG: "119.4 mg/dL"
- Compound: "CCCNC(=O)NS(=O)(=O)c1ccc(Cl)cc1 [CHLORPROPAMIDE]"
  TG: "108.6 mg/dL"
- Compound: "CN1C(=O)CN=C(c2ccccc2)c2cc(Cl)ccc21 [DIAZEPAM]"
  TG: "112.8 mg/dL"
- Compound: "NNC(=O)c1ccncc1 [ISONIAZID]"
  TG: "114 mg/dL"
- Compound: "NC(N)=Nc1nc(CSCCC(N)=NS(N)(=O)=O)cs1 [FAMOTIDINE]"
  TG: "85.6 mg/dL"
- Compound: "COC1=CC(=O)C[C@@H](C)[C@]12Oc1c(Cl)c(OC)cc(OC)c1C2=O [GRISEOFULVIN]"
  TG: "119.8 mg/dL"
- Compound: "O=C(CCCN1CCC(O)(c2ccc(Cl)cc2)CC1)c1ccc(F)cc1 [HALOPERIDOL]"
  TG: "94.8 mg/dL"
- Compound: "CC(C)OC(=O)C(C)(C)Oc1ccc(C(=O)c2ccc(Cl)cc2)cc1 [FENOFIBRATE]"
  TG: "65 mg/dL"

----------
Species on record: Rattus norvegicus
Test Method Notes: Open TG-GATES - Regimen: Daily Repeat
Assay type: toxicity, organism-based, Sprague-Dawley
Set-up: regimen Daily Repeat, gender Male, age 6 weeks
Condition Description: in vivo, po, 300 mg/kg, […], tissue Blood, route gavage, dose level Middle, time 28 day
Listed here: items and their measured Plat.
Measured Attribute: Plat (x10_4/uL)

- Compound: "COC1=CC(=O)C[C@@H](C)[C@]12Oc1c(Cl)c(OC)cc(OC)c1C2=O [GRISEOFULVIN]"
  Measured Attribute: "Plat"
  Reported: 108.5
- Compound: "CCOc1ccc(NC(=O)CC(C)O)cc1 (stereo not given) [BUCETIN]"
  Measured Attribute: "Plat"
  Reported: 106.2
- Compound: "NC(N)=Nc1nc(CSCCC(N)=NS(N)(=O)=O)cs1 [FAMOTIDINE]"
  Measured Attribute: "Plat"
  Reported: 100.3
- Compound: "CCOC(=O)CCC(=O)O[C@H]1[C@H](O[C@@H]2[C@@H](C)[C@H](O[C@H]3C[C@@](C)(OC)[C@@H](O)[C@H](C)O3)[C@@H](C)C(=O)O[C@H](CC)[C@@](C)(O)[C@H](O)[C@@H](C)C(=O)[C@H](C)C[C@@]2(C)O)O[C@H](C)C[C@@H]1N(C)C [ERYTHROMYCIN ETHYLSUCCINATE]"
  Measured Attribute: "Plat"
  Reported: 99.2
- Compound: "COc1ccc2[nH]c([S+]([O-])Cc3ncc(C)c(OC)c3C)nc2c1 (stereo not given) [OMEPRAZOLE]"
  Measured Attribute: "Plat"
  Reported: 119.7
